Hello, the source for this data is PubChem BioAssay (NCI), in case you need it.

tested on: SK-OV-3 ovarian; assay: NCI tumour cell line growth inhibition, 48 h
measured.property: TGI

OCC(O)C(O)C(O)/C=N/Nc1nc(O)c(/C=C2\C=Nc3ccccc32)[nH]1 (configuration not stated) :: > 100 µM
COC1=C(Br)C(=O)c2nc(C)ccc2C1=O :: 33.6 µM
Cc1ccc(S(=O)(=O)NC(=O)NNc2ccc(F)cc2)cc1 :: > 100 µM

In: Looking for the measured TGI of CC1(C)[C@@H](Cn2cnc3c(Cl)nc(N)nc32)CC[C@@]1(C)CO , can you help?
Out: > 100 µM

In: // same read-out, input: CCN(CC)c1cc2oc3cc(N)cc(=N)c-3nc2cc1C
Out: > 100 µM

In: // query: COC(=O)C1(Cc2ccc3c(c2)CCC3)Cc2cc3c(cc2C1)CCC3
Out: > 100 µM

In: Next up: COC(=O)C1(Cc2ccc3c(c2)CCC3)Cc2ccccc2C1=O (configuration not stated)
Out: 85.8 µM

In: Also check C[C@]1(S(=O)(=O)c2ccccc2)C[C@H]2N(Cc3ccccc3)[C@@H]1CCC21OCCO1
Out: > 100 µM

In: Here is the next compound: O=C(N/N=C/c1ccc([N+](=O)[O-])o1)c1ccc(O)cc1
Out: > 100 µM

In: What do you get for COC(=O)[C@H](C)NC(=O)[C@H](CSC)N1C(=O)N[C@@H](C(C)C)C1=O ?
Out: > 100 µM

In: Item: COc1c(O)c(O)cc2c1-c1ccc(OC)c(=O)cc1C(NC(C)=O)CC2 (configuration not stated)
Out: 32.9 µM

In: Would you kindly repeat that for COc1ccc(N=C2C(=S)N(c3ccc(OC)cc3)/C(=N/S(=O)(=O)c3ccccc3)N2c2ccccc2)cc1 ?
Out: > 55.4 µM

---

system: MOLT-4 leukemia; assay: NCI tumour cell line growth inhibition, 48 h
# TGI annotations

See these solved cases before continuing.
NS(=O)(=O)c1ccc(NC(NC(=O)C(C(F)(F)F)C(F)(F)F)(C(F)(F)F)C(F)(F)F)cc1 :: > 100 µM
CCCCc1c2c(nc3c1CCC/C3=C\c1ccccc1)/C(=C/c1ccccc1)CCC2 :: > 100 µM
Cc1ccc(S(=O)(=O)NC(=O)NNc2ccc(F)cc2)cc1 :: > 100 µM
O=C1c2cccc(NCCNCCO)c2C(=O)c2cccc(NCCNCCO)c21 :: 6.3 µM
CCN1C(=O)N(CC)C2Nn3c(s/c(=C4\C(=O)N(C)c5ccccc54)c3=O)=NC21 (stereo not given) :: > 100 µM

In: Endpoint output: TGI of O=[N+]([O-])c1ccc(CSCc2ccc(Cl)cc2)cc1 . Value?
Out: > 100 µM

In: What do we get for Clc1cc(Cl)cc(Nc2ccc3cc(OCCCN4CCOCC4)ccc3n2)c1 ?
Out: 5.81 µM

In: Try this molecule too: COC(=O)c1cc(C)ccc1CC(Cc1ccc(C)cc1)C(=O)OC (stereo not given)
Out: > 49.5 µM

In: Thanks! And C/C(CCn1[nH]c(=O)ccc1=O)=N\OCCCc1ccccc1 ?
Out: > 100 µM

In: Do the same for COc1ccc2c(c1)CCN=C2c1ccccc1CCCCl please
Out: 42.4 µM

---

tested on: A498 renal; assay: NCI tumour cell line growth inhibition, 48 h; in the data active means GI50 below about 0.43 µM; inactive means the rest
A correct response names exactly one class from class 1 = active, class 0 = inactive

CC/C=C/C/C=C/C/C=C/C/C=C/C/C=C/C/C=C/CCC(=O)Nc1ccn([C@@H]2O[C@H](CO)[C@@H](O)C2(F)F)c(=O)n1 :: class 1
C[C@H]1CCC/C=C/[C@@H]2C[C@H](O)C[C@H]2[C@H](O)[C@@H](SCC(O)CO)CC(=O)O1 (stereo not given in full) :: class 0
O=c1[nH]c(=O)n([C@H]2CCCO2)cc1F :: class 0
Cn1cc(-c2ccc(-c3cncc(Cl)c3N3CCC4(CCNC4=O)CC3)cc2)cn1 :: class 0
CN1CCN(c2ccc(Nc3ncc4cc(C#N)c(=O)n(C5CCCC5)c4n3)cc2)CC1 :: class 1

In: Please state the recorded outcome for this molecule: COc1ccc(-c2csc(NC(=O)CSc3nc(C)c(-c4ccccc4)n3Nc3ccccc3)n2)cc1
Out: class 0

In: Can you check Cc1cc(C)n(-c2nnc3n2N=C(c2ccc(-c4ccccc4)cc2)CS3)n1 next?
Out: class 0
